test_description: APR_HepG2_CellLoss_72hr: Apredica 72-hour HepG2 Assay for Cell Loss (AID 2282915)
conditions: high-content imaging
The source made the active and inactive calls. The calls were made as follows: active = hit-call score of the fitted dose curve at least 0.9, where 1 is the maximum; inactive = score below 0.9.
measure: AC50

>>> result("CCOP(=S)(OCC)SCCSCC")
"inactive"
>>> result("COc1cccc(C(=O)NN(C(=O)c2cc(C)cc(C)c2)C(C)(C)C)c1C")
"inactive"
>>> result("FC(F)C(F)(F)OCC(Cn1cncn1)c1ccc(Cl)cc1Cl (stereo not given)")
"99.9 µM (active)"
>>> result("N#CSCSC#N")
"inactive"
>>> result("CC[C@H](C)[C@H]1O[C@]2(C=C[C@@H]1C)C[C@@H]1C[C@@H](C/C=C(\\C)[C@@H](O[C@H]3C[C@H](OC)[C@@H](O[C@H]4C[C@H](OC)[C@@H](NC)[C@H](C)O4)[C@H](C)O3)[C@@H](C)/C=C/C=C3\\CO[C@@H]4[C@H](O)C(C)=C[C@@H](C(=O)O1)[C@]34O)O2")
"inactive"
>>> result("COP(=O)(NC(C)=O)SC (stereo not given)")
"inactive"
>>> result("CNC(=O)Oc1cccc2c1OC(C)(C)O2")
"86.6 µM (active)"
>>> result("CCCSP(=O)(OCC)SCCC")
"inactive"
>>> result("CCOP(=S)(OCC)Oc1cc(C)nc(C(C)C)n1")
"inactive"
>>> result("CC(C1CC1)C(O)(Cn1cncn1)c1ccc(Cl)cc1 (stereo not given)")
"inactive"
